Each entry below lists one item and its recorded pIC50 value.
target: CypD (Homo sapiens)
Sequence (P30405 30-207): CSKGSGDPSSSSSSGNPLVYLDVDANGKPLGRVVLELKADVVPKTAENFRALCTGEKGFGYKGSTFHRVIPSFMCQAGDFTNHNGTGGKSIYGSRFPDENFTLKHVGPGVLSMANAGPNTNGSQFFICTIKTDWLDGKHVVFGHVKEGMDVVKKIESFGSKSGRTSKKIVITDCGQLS
pIC50: −log10 of the molar value.

>  <MOLECULE>
CC(=O)O[C@@H]1OC[C@H]2C=C(C3(C)CCCCC3)CC[C@@H]12 [Compound 27a]

>  <pIC50>
> 6.30

$$$$
>  <MOLECULE>
CC(=O)O[C@H]1OC[C@@H]2C=C([C@@]3(C)CCCC(C)(C)C3)CC[C@H]12 [Compound 29a]

>  <pIC50>
> 6.30

$$$$
>  <MOLECULE>
CC(=O)O[C@H]1O[C@@H](OC(C)=O)[C@@H]2CC[C@](O)(C3(C)CCCC(C)(C)C3)C[C@H]12 (stereo partly drawn)

>  <pIC50>
> 6.30

$$$$
